Where do the numbers come from? From the supplement of paper PMC13172266.

In this section, each of the molecules is paired with its reported cell proliferation.
System: U2932 parental
Test: cell proliferation relative to vehicle (% of vehicle); higher = less growth inhibition
Details: 500 nM; 72 h
Where a name gives a salt, the structure may show the parent alone.
property-name: cell proliferation

• C[C@]1(c2nc3c(C(N)=O)cccc3[nH]2)CCCN1 = 96.6
• O=c1[nH]cc(F)c(=O)[nH]1 = 96.2
• CCCCCCCCCCCCCCCCCCOP(=O)([O-])OC1CC[N+](C)(C)CC1 = 102
• Cc1ccc(C(=O)N(CCCN)[C@@H](c2nc3cc(Cl)ccc3c(=O)n2Cc2ccccc2)C(C)C)cc1 = 10.2
• CC(=O)Nc1cccc(-n2c(=O)n(C3CC3)c(=O)c3c(Nc4ccc(I)cc4F)n(C)c(=O)c(C)c32)c1 = 94.4
• COc1cc(Nc2c(C#N)cnc3cc(OCCCN4CCN(C)CC4)c(OC)cc23)c(Cl)cc1Cl [Bosutinib (SKI-606)] = 83.4
• N#Cc1c(Oc2ccc(F)c(NC(=O)Cc3cccc(C(F)(F)F)c3)c2)ccc2nc(NC(=O)C3CC3)sc12 = 98.6
• CN1C(=O)C(Cc2c[nH]c3ccccc23)NC1=S (stereo not drawn) = 94.8
• COc1nc(C)cnc1NS(=O)(=O)c1cccnc1-c1ccc(-c2nnco2)cc1 [Zibotentan (ZD4054)] = 95.2
• FC(F)c1nc2ccccc2n1-c1nc(N2CCOCC2)nc(N2CCOCC2)n1 = 46.8
• CN(C)Cc1ccc(S(=O)(=O)n2ccc(/C=C/C(=O)NO)c2)cc1 = 84.7
• O=c1[nH]c(=O)n([C@H]2C[C@H](O)[C@@H](CO)O2)cc1F = 34.2
• CC/C(=C(\c1ccccc1)c1ccc(OCCN(C)C)cc1)c1ccccc1 [Tamoxifen Citrate] = 79.1
• C[C@@H]1CN(CC(=O)Nc2ccc3c(c2)Cc2cccc(-c4cc(=O)cc(N5CCOCC5)o4)c2S3)C[C@H](C)O1 = 111
• O=c1ncccn1[C@@H]1O[C@H](CO)[C@@H](O)[C@H]1O = 102
• CN(c1ncccc1CNc1nc(Nc2ccc3c(c2)CC(=O)N3)ncc1C(F)(F)F)S(C)(=O)=O = 87.2
• Cn1cnc2c(F)c(Nc3ccc(Br)cc3Cl)c(C(=O)NOCCO)cc21 = 101
• CC[C@@]1(O)C(=O)OCc2c1cc1n(c2=O)Cc2cc3cc(O)ccc3nc2-1 [(S)-10-Hydroxycamptothecin] = 0.765
• CNC(=O)c1cccc(-c2ccc3c(N4CCOC[C@@H]4C)nc(N4CCOC[C@@H]4C)nc3n2)c1 = 46.4
• COc1cc(Nc2ncc(F)c(Nc3ccc4c(n3)N(COP(=O)(O)O)C(=O)C(C)(C)O4)n2)cc(OC)c1OC [Fostamatinib (R788)] = 93.6
• N#C/C(=C(/N)Sc1ccc(N)cc1)c1ccccc1C(F)(F)F = 99.2
• Cn1c(Nc2ccc(C(F)(F)F)cc2)nc2cc(Oc3ccnc(-c4ncc(C(F)(F)F)[nH]4)c3)ccc21 = 88
• COc1cc2c(c(OC)c1OC)-c1c(cc3c(c1OC)OCO3)CC(C)C(C)C2 (stereo not drawn) [Schisandrin B (Sch B)] = 95.9
• CCC[C@H](NC(=O)/C(C#N)=C/c1cccc(Br)n1)c1ccccc1 [Degrasyn (WP1130)] = 86.4
• CC(C)n1c(/C=C/C(O)CC(O)CC(=O)O)c(-c2ccc(F)cc2)c2ccccc21 (stereo not drawn) [Fluvastatin Sodium] = 83.5
• Cc1[nH]c(/C=C2\C(=O)Nc3ccc(S(=O)(=O)Cc4c(Cl)cccc4Cl)cc32)c(C)c1C(=O)N1CCC[C@@H]1CN1CCCC1 = 96.8
• CCCC(CCC)C(=O)O [Valproic acid sodium salt (Sodium valproate)] = 97.6
• Cc1cc(Nc2cc(N3CCN(C)CC3)nc(/C=C/c3ccccc3)n2)n[nH]1 [ENMD-2076 L-(+)-Tartaric acid] = 47.6
• COC(=O)Nc1ccc(-c2nc(N3CCOCC3)c3cnn(C4CCN(C(=O)OC)CC4)c3n2)cc1 = 46.9
• CCc1cncnc1N1CCN(Cc2nc3ccc(C(F)(F)F)cc3[nH]2)CC1 = 92
• Clc1ccc(Nc2nnc(Cc3ccncc3)c3ccccc23)cc1 [Vatalanib (PTK787) 2HCl] = 102
• CC[C@@H]1C(=O)N(C)c2cnc(Nc3ccc(C(=O)NC4CCN(C)CC4)cc3OC)nc2N1C1CCCC1 = 20.4
• Cc1csc(-c2nnc(Nc3ccc(Oc4ncccc4-c4ccnc(N)n4)cc3)c3ccccc23)c1 = 61.8

----------
Tested on: U2932 parental
Assay: cell proliferation relative to vehicle (% of vehicle); higher = less growth inhibition
Settings: 50 nM; 72 h
Counter-ions that a name gives are not always drawn.
property-name: cell proliferation

• O=C(NC[C@H](O)CO)c1ccncc1Nc1ccc(I)cc1F = 92.2
• CCC[C@H](Nc1nc(-c2ccc(NC(=O)NCC)c(OC)c2)ncc1C)c1cccnc1 = 10.4
• CN(C)CCOc1ccc(-c2nc(-c3ccncc3)c(-c3ccc4c(c3)CC/C4=N\O)[nH]2)cc1 = 93.3
• FC(F)(F)c1ccc(/C=C/c2nc(COc3ccc(CCCCn4ccnn4)cc3)co2)cc1 = 85.6
• CN(C)C(=N)NC(=N)N [Metformin HCl] = 99.9
• COC1=CC(c2cc3ccccc3[nH]2)=N/C1=C\c1[nH]c(C)cc1C [Obatoclax Mesylate (GX15-070)] = 75.2
• Cc1cccc(-c2[nH]c(CNc3ccccc3F)nc2-c2ccc3ncnn3c2)n1 = 104
• Oc1c2ccccc2c2c3c(cccc13)N=N2 = 103
• CCC(C)(C)C(=O)O[C@H]1C[C@@H](C)C=C2C=C[C@H](C)[C@H](CC[C@@H]3C[C@@H](O)CC(=O)O3)[C@H]21 = 90.5
• O=C(/C=C/c1cccc(S(=O)(=O)Nc2ccccc2)c1)NO = 90.1
• CC1(C)CC[C@]2(NC(=O)C(C)(F)F)CC[C@]3(C)[C@H](C(=O)C=C4[C@@]5(C)C=C(C#N)C(=O)C(C)(C)[C@@H]5CC[C@]43C)[C@@H]2C1 [Omaveloxolone (RTA-408)] = 93.8
• CN1CCN(CCOc2cc(OC3CCOCC3)c3c(Nc4c(Cl)ccc5c4OCO5)ncnc3c2)CC1 = 94.1
• COCCOc1ccc2c(c1)ncn2-c1ccc2cccc(N3CCC(N)CC3)c2n1 = 99.8
• CC(C)NCCCn1c(Sc2cc3c(cc2I)OCO3)nc2c(N)ncnc21 = 112
• CCc1nc(-c2cccc(C)c2)c(-c2ccnc(NC(=O)c3ccccc3)c2)s1 = 104
• Cc1cnc(-c2ccccc2C(C)C)nc1NCc1ccc(-n2ccnn2)cc1 = 101
• O=S(=O)(O)CCS = 95.4
• Cn1cc(-c2ccc3nnc(C(F)(F)c4ccc5ncccc5c4)n3n2)cn1 = 99.8

----------
In this section, each of the compounds is paired with its reported cell proliferation.
Tested on: U2932 parental
Test: cell proliferation relative to vehicle (% of vehicle); higher = less growth inhibition
Conditions: 500 nM; 72 h
Counter-ions that a name gives are not always drawn.
property-name: cell proliferation

- Oc1cc(O)cc(/C=C/c2ccc(O)c(O)c2)c1: 94
- CC[C@@]1(O)C(=O)OCc2c1cc1n(c2=O)Cc2cc3c(CN(C)C)c(O)ccc3nc2-1 [Topotecan HCl]: 2.71
- CC(C)c1onc(-c2c(Cl)cccc2Cl)c1COc1ccc(/C=C/c2cccc(C(=O)O)c2)c(Cl)c1: 111
- CN(Cc1cnc2nc(N)nc(N)c2n1)c1ccc(C(=O)N[C@@H](CCC(=O)O)C(=O)O)cc1 [Methotrexate]: 29.9
- Oc1ccc(-c2nc(-c3ccc(F)cc3)c(-c3ccncc3)[nH]2)cc1: 99.2

----------
In this section, each of the compounds is paired with its reported cell proliferation.
System: U2932 TK216-resistant clone 3
Assay: cell proliferation relative to vehicle (% of vehicle); higher = less growth inhibition
Details: 500 nM; 72 h
property-name: cell proliferation

• COC(=O)c1ccc2c(c1)NC(=O)/C2=C(\Nc1ccc(N(C)C(=O)CN2CCN(C)CC2)cc1)c1ccccc1 = 81.7
• O=C(Nc1c[nH]nc1-c1nc2ccc(CN3CCOCC3)cc2[nH]1)NC1CC1 = 60.1
• CCN(c1cc(-c2ccc(CN3CCOCC3)cc2)cc(C(=O)NCc2c(C)cc(C)[nH]c2=O)c1C)C1CCOCC1 = 87.6
• C[C@]12C=CC(=O)C=C1CC[C@@H]1[C@@H]2C(=O)C[C@@]2(C)[C@H]1CC[C@]2(O)C(=O)CO = 102
• O=C(NCc1ccncc1)C12CC3CC(C1)CC(c1ccc(Cl)cc1)(C3)C2 = 98.3
• Cc1c(CN2CCN(C(=O)[C@H](C)O)CC2)sc2c(N3CCOCC3)nc(-c3cnc(N)nc3)nc12 = 40.6
• Cn1nnc2c(C(N)=O)ncn2c1=O [Temozolomide] = 100
• Cc1nnc(C(C)C)n1C1C[C@H]2CC[C@@H](C1)N2CC[C@H](NC(=O)C1CCC(F)(F)CC1)c1ccccc1 (stereo in doubt) = 101
• O=S(=O)(O)CCS = 103
• C[C@@H]1CC(=O)c2c(ccc3c2C(=O)c2cccc(O)c2C3=O)C1 = 92.5
